- System: LNCaP cells
- Measurement Notes: Cell growth, CELLTITER96 AQUEOUS ONE tetrazolium assay
- Assay type: cell-based
- Conditions: Homo sapiens, read-out: concentration necessary for 50% inhibition of growth
Measurement Name: IC50

IC50 reported for this molecule `C=CCc1ccc(O)c(OC)c1` : ~750 µM

Data provenance: patent US20040116397A1
